# Ratio Maximum cGMP increase vs Baseline annotations
- Tested on: Human Platelets
- Assay Protocol: Total cGMP in human platelets
- Format: cell-based
- Cond: 1 μM riociguat and 100 nM BAY 190954, incubation 2 h
Form field (numeric): enter value without unit.

Below, each entry is followed by its recorded Ratio Maximum cGMP increase vs Baseline result.
CCCc1nc(C)c2c(=O)[nH]c(-c3cc(S(=O)(=O)N4CCC(CC(CO)CO)CC4)ccc3OCC)nn12 = 28.5
CCCc1nc(C)c2c(=O)[nH]c(-c3cc(S(=O)(=O)N4CCC(CC(C)(CO)CO[N+](=O)[O-])CC4)ccc3OCC)nn12 (stereo not drawn) = 204.1
CCCc1nc(C)c2c(=O)[nH]c(-c3cc(S(=O)(=O)N4CCC([C@H](CO[N+](=O)[O-])O[N+](=O)[O-])CC4)ccc3OCC)nn12 = 152.5
CCCc1nn(C)c2c(=O)[nH]c(-c3cc(S(=O)(=O)N4CCC([C@H](CO[N+](=O)[O-])O[N+](=O)[O-])CC4)ccc3OCC)nc12 = 67.4
CCCc1nn(C)c2c(=O)[nH]c(-c3cc(S(=O)(=O)N4CCC([C@@H](O)CO)CC4)ccc3OCC)nc12 = 6.4

Hello, please tell me recorded Ratio Maximum cGMP increase vs Baseline for this one: CCCc1nc(C)c2c(=O)[nH]c(-c3cc(S(=O)(=O)N4CCC(CC(C)(CO)CO)CC4)ccc3OCC)nn12
39.0

Hello, please tell me recorded Ratio Maximum cGMP increase vs Baseline for this one: CCCc1nn(C)c2c(=O)[nH]c(-c3cc(S(=O)(=O)N4CCC([C@@H](O)CO[N+](=O)[O-])CC4)ccc3OCC)nc12
26.1

Hello, please tell me recorded Ratio Maximum cGMP increase vs Baseline for this one: CCCc1nc(C)c2c(=O)[nH]c(-c3cc(S(=O)(=O)N4CCC(CC(C)(CO[N+](=O)[O-])CO[N+](=O)[O-])CC4)ccc3OCC)nn12
202.8

Hello, please tell me recorded Ratio Maximum cGMP increase vs Baseline for this one: CCCc1nc(C)c2c(=O)[nH]c(-c3cc(S(=O)(=O)N4CCC(CC(CO[N+](=O)[O-])CO[N+](=O)[O-])CC4)ccc3OCC)nn12
262.3
